# Tested on: intracellular T. cruzi amastigotes
# Method notes: Primary high-content intracellular T. cruzi amastigote assay
# Type: cell-based, Trypanosoma cruzi (Silvio X10/7 A1) in Vero cells
# Cond: Trypanosoma cruzi, 72 h, read-out: pEC50 (cruzi) (converted)
Assignment: determine reported EC50 for the given compounds.
Number in µM, nothing else.

Task: Record lookup: for intracellular T. cruzi amastigotes, what EC50 belongs to Oc1cc(Cl)ccc1Oc1ccc(Cl)cc1Cl ?
Output: 7.94

Task: Also C[C@]12Cc3c[nH]nc3C[C@@H]1CC[C@@H]1[C@@H]2CC[C@@]2(C)[C@H]1CC[C@]2(C)O , if possible.
Output: 5.01

Task: Also CCOC(=O)C1(c2ccccc2)CCN(CCC(C#N)(c2ccccc2)c2ccccc2)CC1 [Diphenoxylate] , if possible.
Output: 2.51

Task: Also CNCC[C@H](Oc1cccc2ccccc12)c1cccs1 , if possible.
Output: 6.31

Task: Also CNC1CC(c2ccc(Cl)c(Cl)c2)c2ccccc21 (centres unmarked) , if possible.
Output: 5.01

Task: Also CCOC(=O)c1cncn1[C@H](C)c1ccccc1 [Etomidate] , if possible.
Output: 5.01

Task: Also c1ccc2c(c1)Nc1ccccc1S2 , if possible.
Output: 2.51

Task: Also C[C@]12C=CC(=O)N[C@@H]1CC[C@@H]1[C@@H]2CC[C@]2(C)[C@@H](C(=O)Nc3cc(C(F)(F)F)ccc3C(F)(F)F)CC[C@@H]12 [Dutasteride] , if possible.
Output: 15.8

---

# Assayed system: CYP51 (Trypanosoma cruzi)
# Sequence (Q7Z1V1 whole entry): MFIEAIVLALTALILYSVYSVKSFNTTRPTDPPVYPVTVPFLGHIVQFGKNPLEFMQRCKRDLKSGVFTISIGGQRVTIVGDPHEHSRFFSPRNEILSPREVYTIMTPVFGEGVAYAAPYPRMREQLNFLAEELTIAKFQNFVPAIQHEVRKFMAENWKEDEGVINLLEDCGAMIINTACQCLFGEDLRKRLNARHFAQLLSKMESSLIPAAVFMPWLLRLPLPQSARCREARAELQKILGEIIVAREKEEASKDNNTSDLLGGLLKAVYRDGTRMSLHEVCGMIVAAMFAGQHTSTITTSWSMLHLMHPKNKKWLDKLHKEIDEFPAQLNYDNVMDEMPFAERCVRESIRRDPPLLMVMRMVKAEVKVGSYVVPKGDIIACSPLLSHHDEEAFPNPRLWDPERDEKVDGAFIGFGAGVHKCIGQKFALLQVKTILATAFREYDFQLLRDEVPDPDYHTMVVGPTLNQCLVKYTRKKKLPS
# Method notes: biochemical
# Assay type: biochemical
# Cond: read-out: CYP51 pIC50 (converted)
Assignment: determine reported IC50 for the given compounds.

Task: Look at this compound and give its reported IC50. c1ccc(-c2ccc(C(c3ccccc3)n3ccnc3)cc2)cc1 (stereo not shown)
Output: 0.0398 µM

Task: Also CCOC(=O)C1=C(COCCN)NC(C)=C(C(=O)OC)C1c1ccccc1Cl (stereo not shown) , if possible.
Output: > 10 µM

Task: Also O=C(Cn1ccnc1[N+](=O)[O-])NCc1ccccc1 , if possible.
Output: > 10 µM

Task: Also CC(C(O)c1ccc(O)cc1)N1CCC(Cc2ccccc2)CC1 (stereo not shown) , if possible.
Output: > 10 µM

Task: Also C[C@]12CC[C@H](O)CC1=CC[C@@H]1[C@@H]2CC[C@]2(C)C(c3cccnc3)=CC[C@@H]12 , if possible.
Output: > 1 µM

Task: Also O=C1Cc2cc(CCN3CCN(c4nsc5ccccc45)CC3)c(Cl)cc2N1 , if possible.
Output: > 10 µM

Task: Also CN1CCCC(n2nc(Cc3ccc(Cl)cc3)c3ccccc3c2=O)CC1 (stereo not shown) , if possible.
Output: > 10 µM

---

# Test system: intracellular T. cruzi amastigotes
# Method notes: Primary high-content intracellular T. cruzi amastigote assay
# Assay type: cell-based, Trypanosoma cruzi (Silvio X10/7 A1) in Vero cells
# Cond: Trypanosoma cruzi; hits of the bio-actives screen, 10-point dose-response, top concentration 50μM, 72h; read-out: pEC50 (cruzi) (converted)
Assignment: determine reported EC50 for the given compounds.
Number in µM, nothing else.

Task: Look at this compound and give its reported EC50. COc1ccccc1OCCNCC(O)COc1cccc2[nH]c3ccccc3c12 (centres unmarked)
Output: 5.01

Task: Also O=C1Cc2cc(CCN3CCN(c4nsc5ccccc45)CC3)c(Cl)cc2N1 , if possible.
Output: 1.58

Task: Also C[C@]12CC[C@@H]3c4ccc(O)cc4C[C@@H](CCCCCCCCC[S+]([O-])CCCC(F)(F)C(F)(F)F)[C@H]3[C@@H]1CC[C@@H]2O (some centres unmarked) , if possible.
Output: 5.01

Task: Also C[C@]12CC[C@H](O)CC1=CC[C@@H]1[C@@H]2CC[C@]2(C)C(c3cccnc3)=CC[C@@H]12 , if possible.
Output: 0.794

Task: Also COc1cc2nc(N3CCN(C(=O)C4COc5ccccc5O4)CC3)nc(N)c2cc1OC (centres unmarked) , if possible.
Output: 5.01

Task: Also C[C@@H]1CN(CCCn2c3ccccc3c3ccccc32)C[C@H](C)N1 , if possible.
Output: 5.01

Task: Also CN1CCN(CC/C=C2/c3ccccc3Sc3ccc(S(=O)(=O)N(C)C)cc32)CC1 , if possible.
Output: 5.01

Task: Also CC(C(O)c1ccc(O)cc1)N1CCC(Cc2ccccc2)CC1 (centres unmarked) , if possible.
Output: 0.501

Measured values drawn from paper PMC4833300 for this set.
